pKi: −log10 of the molar value.
// molecules with reported pKi on Prostaglandin E2 receptor EP1 subtype (Homo sapiens, UniProt P34995), multi-publication
Sequence (P34995 whole entry): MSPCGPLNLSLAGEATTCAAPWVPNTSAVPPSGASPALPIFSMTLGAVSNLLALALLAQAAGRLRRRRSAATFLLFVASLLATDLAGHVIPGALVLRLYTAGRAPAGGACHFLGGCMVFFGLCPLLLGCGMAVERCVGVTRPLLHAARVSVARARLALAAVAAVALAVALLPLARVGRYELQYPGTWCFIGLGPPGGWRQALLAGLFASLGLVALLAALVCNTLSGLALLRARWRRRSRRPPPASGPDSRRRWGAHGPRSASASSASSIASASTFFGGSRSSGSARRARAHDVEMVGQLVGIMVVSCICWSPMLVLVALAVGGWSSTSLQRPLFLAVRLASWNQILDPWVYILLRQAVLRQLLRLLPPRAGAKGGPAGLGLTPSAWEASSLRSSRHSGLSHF
Recorded metric: pKi

{"Molecule": "Cc1cccc(/C=C/C(O)c2ccccc2/C=C/C(=O)O)c1OCc1c(Cl)cccc1Cl (centres undefined)", "Study system": "Prostaglandin E2 receptor EP1 subtype (Homo sapiens, UniProt P34995)", "Recorded metric": "pKi", "Bound operator": "=", "Assay value": 5.52}
{"Molecule": "O=C(O)C[C@H]1CCc2c1n(Cc1ccc(Cl)cc1)c1c(Br)cc(F)cc21", "Study system": "Prostaglandin E2 receptor EP1 subtype (Homo sapiens, UniProt P34995)", "Recorded metric": "pKi", "Bound operator": "=", "Assay value": 5.36}
{"Molecule": "COc1ccc(Br)cc1S(=O)(=O)NC(=O)/C=C/c1ccccc1Cc1ccc2ccccc2c1", "Study system": "Prostaglandin E2 receptor EP1 subtype (Homo sapiens, UniProt P34995)", "Recorded metric": "pKi", "Bound operator": "=", "Assay value": 4.41}
{"Molecule": "C[C@H](NC(=O)c1cscc1Cc1cccc(Cl)c1)c1ccc(C(=O)O)cc1", "Study system": "Prostaglandin E2 receptor EP1 subtype (Homo sapiens, UniProt P34995)", "Recorded metric": "pKi", "Bound operator": "<", "Assay value": 5.14}
{"Molecule": "O=C(O)/C=C/c1ccccc1-c1ccc(Cl)c(Cl)c1", "Study system": "Prostaglandin E2 receptor EP1 subtype (Homo sapiens, UniProt P34995)", "Recorded metric": "pKi", "Bound operator": "=", "Assay value": 5.00}
{"Molecule": "C[C@H](NC(=O)c1cc(Cl)cnc1Oc1cccc(F)c1)c1ccc(C(=O)O)cc1", "Study system": "Prostaglandin E2 receptor EP1 subtype (Homo sapiens, UniProt P34995)", "Recorded metric": "pKi", "Bound operator": "<", "Assay value": 5.22}
{"Molecule": "CO[C@@](C(=O)NS(=O)(=O)c1ccccc1-c1ccc(CN2C(=O)c3ccccc3CCc3ccccc32)cc1)(c1ccccc1)C(F)(F)F", "Study system": "Prostaglandin E2 receptor EP1 subtype (Homo sapiens, UniProt P34995)", "Recorded metric": "pKi", "Bound operator": "=", "Assay value": 7.30}
{"Molecule": "COc1cc(C/C=C/c2ccccc2/C=C/C(=O)O)ccc1OCc1ccccc1", "Study system": "Prostaglandin E2 receptor EP1 subtype (Homo sapiens, UniProt P34995)", "Recorded metric": "pKi", "Bound operator": "=", "Assay value": 3.82}
{"Molecule": "O=C(O)c1ccc(CCCc2ccccc2OCc2ccccc2)cc1", "Study system": "Prostaglandin E2 receptor EP1 subtype (Homo sapiens, UniProt P34995)", "Recorded metric": "pKi", "Bound operator": "=", "Assay value": 6.64}
